B1: E3 ubiquitin-protein ligase COP1 (Arabidopsis thaliana (Mouse-ear cress)), P43254 (parent)
chain: MEEISTDPVVPAVKPDPRTSSVGEGANRHENDDGGSGGSEIGAPDLDKDLLCPICMQIIKDAFLTACGHSFCYMCIITHLRNKSDCPCCSQHLTNNQLYPNFLLDKLLKKTSARHVSKTASPLDQFREALQRGCDVSIKEVDNLLTLLAERKRKMEQEEAERNMQILLDFLHCLRKQKVDELNEVQTDLQYIKEDINAVERHRIDLYRARDRYSVKLRMLGDDPSTRNAWPHEKNQIGFNSNSLSIRGGNFVGNYQNKKVEGKAQGSSHGLPKKDALSGSDSQSLNQSTVSMARKKRIHAQFNDLQECYLQKRRQLADQPNSKQENDKSVVRREGYSNGLADFQSVLTTFTRYSRLRVIAEIRHGDIFHSANIVSSIEFDRDDELFATAGVSRCIKVFDFSSVVNEPADMQCPIVEMSTRSKLSCLSWNKHEKNHIASSDYEGIVTVWDVTTRQSLMEYEEHEKRAWSVDFSRTEPSMLVSGSDDCKVKVWCTRQEASVINIDMKANICCVKYNPGSSNYIAVGSADHHIHYYDLRNISQPLHVFSGHKKAVSYVKFLSNNELASASTDSTLRLWDVKDNLPVRTFRGHTNEKNFVGLTVNSEYLACGSETNEVYVYHKEITRPVTSHRFGSPDMDDAEEEAGSYFISAVCWKSDSPTMLTANSQGTIKVLVLAA

Variants of: B1
protocol_conditions: with cry1_arath CRY1, Q43125
Sequence (Q43125 whole entry): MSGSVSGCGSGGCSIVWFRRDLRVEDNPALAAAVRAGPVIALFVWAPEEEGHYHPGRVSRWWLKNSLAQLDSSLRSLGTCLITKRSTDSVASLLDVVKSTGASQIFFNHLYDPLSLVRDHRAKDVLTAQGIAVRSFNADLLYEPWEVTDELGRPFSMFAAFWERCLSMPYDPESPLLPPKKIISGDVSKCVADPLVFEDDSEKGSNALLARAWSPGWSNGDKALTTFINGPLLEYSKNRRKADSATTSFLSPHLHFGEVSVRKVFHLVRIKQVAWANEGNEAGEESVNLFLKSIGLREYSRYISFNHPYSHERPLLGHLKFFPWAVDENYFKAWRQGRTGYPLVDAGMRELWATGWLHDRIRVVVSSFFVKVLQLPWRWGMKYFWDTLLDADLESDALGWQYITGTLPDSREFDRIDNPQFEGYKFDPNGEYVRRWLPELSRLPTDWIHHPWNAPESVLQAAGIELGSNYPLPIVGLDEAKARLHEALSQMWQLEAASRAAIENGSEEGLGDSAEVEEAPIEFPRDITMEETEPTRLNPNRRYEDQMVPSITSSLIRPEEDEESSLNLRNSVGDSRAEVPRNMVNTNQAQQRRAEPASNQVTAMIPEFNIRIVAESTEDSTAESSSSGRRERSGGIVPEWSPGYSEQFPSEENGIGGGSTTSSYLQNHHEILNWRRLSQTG
metric: effect of a mutation on the interaction

> print(dat)
   mutation.id                                   metric              meas.value
1        G524E  effect of a mutation on the interaction  decreasing interaction
2        R465E  effect of a mutation on the interaction  decreasing interaction
3        W467A  effect of a mutation on the interaction  decreasing interaction
4        K550E  effect of a mutation on the interaction  decreasing interaction
5        K422E  effect of a mutation on the interaction  decreasing interaction

Need effect of a mutation on the interaction of E592R , thanks.
decreasing interaction
